system: MCF7; assay: NCI tumour cell line growth inhibition, 48 h
Calls of active or inactive are those of the source. Cut-off read from the data, not from the text of the source: active = GI50 up to about 1.1 µM and inactive = higher.
Reported GI50 values follow for various compounds
measurement-label: GI50

>>> reported("COC1/C=C\\C=C(/C)C(=O)NC2=CC(=O)C(O)=C(CC(C)CC(OC)C(O)C(C)/C=C(\\C)C1OC(N)=O)C2=O (stereo unspecified)")
"0.0826 µM (active)"
>>> reported("COC(CNC(=O)C(C)NC(=O)/C=C/c1ccccc1)OC (stereo unspecified)")
"> 100 µM (inactive)"
>>> reported("CCCCCCCCCCCCc1ccc(S(=O)(=O)O)cc1")
"98.9 µM (inactive)"
>>> reported("CCOC(=O)c1nc2ccc(C(F)(F)F)cc2nc1NCc1ccc(OC)cc1")
"43.2 µM (inactive)"
>>> reported("Cc1nnc(N)nc1/C=C/c1c(O)ccc2ccccc12")
"32.8 µM (inactive)"
>>> reported("CCN(CC)Cc1nc(C2CCC([N+](=O)[O-])O2)no1 (stereo unspecified)")
"15.6 µM (inactive)"
>>> reported("CC1=NN=C(C)C1/N=N/c1ccc2[nH]c(C)nc2c1")
"28.7 µM (inactive)"
>>> reported("COC(=O)C1(CCCCl)CCCN1C(=O)OC(C)(C)C (stereo unspecified)")
"> 100 µM (inactive)"
>>> reported("CCOC(=O)c1nc2ccccc2nc1Nc1ccc(OC)c(OC)c1")
"> 100 µM (inactive)"
>>> reported("COc1ccc(/C=C2\\C[C@H]3[C@@H]4CC=C5C[C@@H](O)CC[C@]5(C)[C@H]4CC[C@]3(C)\\C2=N\\O)cc1")
"3.62 µM (inactive)"
>>> reported("NC[C@H]1Nc2ccccc2[C@@H](O)C1O (stereo partly specified)")
"> 100 µM (inactive)"
>>> reported("N#CC1=C(S)N(C2OC(CO)C(O)C(O)C2O)C(c2ccccc2)=CC1c1cccs1 (stereo unspecified)")
"15.3 µM (inactive)"
>>> reported("CCC(C)C(C(=O)N/N=C1/SCC(=O)N1c1ccccc1)C(=O)N/N=C1/SCC(=O)N1c1ccccc1 (stereo unspecified)")
"34.1 µM (inactive)"
>>> reported("c1ccc2c(c1)cc1c3[nH]c4ccccc4c3ccn21")
"1.19 µM (inactive)"
>>> reported("COC(CN(C(C)=O)C1CCC2(SCCS2)c2[nH]c3ccccc3c21)OC (stereo unspecified)")
"> 100 µM (inactive)"
>>> reported("O=S1(=O)c2cnccc2N=C(NCc2ccccc2)N1c1ccccc1")
"54.5 µM (inactive)"
>>> reported("CC(=O)OC1CN2CCC1CC2 (stereo unspecified) [ACECLIDINE]")
"> 100 µM (inactive)"
>>> reported("OC12CC3c4ccccc4NC3C3Oc4cccc5c4C31CCN(CC1CC1)C2C5 (stereo unspecified)")
"17.8 µM (inactive)"
>>> reported("COC(=O)C1CC2(C)C=CC1N(C(=O)OCc1ccccc1)C2 (stereo unspecified)")
"52.7 µM (inactive)"
>>> reported("Cc1cc(S(=O)(=O)Nc2nnc3c4ccccc4cnn23)c(S)cc1Cl")
"> 67.3 µM (inactive)"
>>> reported("O=C1c2nc3n(c2C(=O)c2c1nc1n2CCC1)CCC3")
"2.68 µM (inactive)"
>>> reported("CCOC(=O)C[C@@H]1C2(C=C[C@@]13CO3)OCC(C)(C)CO2")
"> 100 µM (inactive)"
>>> reported("CC1(C)CC(Nc2ccc(Nc3ccccc3)cc2)CC(C)(C)N1")
"16.7 µM (inactive)"
>>> reported("C=C(C)[C@@H]1CC[C@@]2(C)[C@H]1[C@H]1CCC3[C@@]4(C)CC[C@H](O)C(C)(C)[C@@H]4CC[C@@]3(C)[C@]1(C)C[C@@H]2O (stereo partly specified) [CALENDULADIOL]")
"22.8 µM (inactive)"
>>> reported("Cc1nc2ccc(Br)cc2c(=O)n1-c1nnc(C(C)(C)C)s1")
"> 10 µM (inactive)"
>>> reported("C/C([O-])=C(/c1nc(-c2ccc([N+](=O)[O-])o2)no1)[n+]1cc(C)ccc1C")
"4.02 µM (inactive)"
>>> reported("O=C1C(Cl)=C(N2CCC[C@H]2CO)C(=O)c2c(O)ccc(O)c21")
"1.81 µM (inactive)"
>>> reported("CC(=O)OC(C(=O)O)C(OC(C)=O)C(OC(C)=O)C(OC(C)=O)C(=O)O (stereo unspecified)")
"> 100 µM (inactive)"
>>> reported("O=[N+]([O-])c1cccc(/C=N/NC2=CS(=O)(=O)C=C2)c1")
"> 100 µM (inactive)"
>>> reported("CC(C)N(C(C)C)S(=O)(=O)C[C@]12CC[C@H](CC13OCC(CS(=O)(=O)c1ccccc1)O3)C2(C)C (stereo partly specified)")
"36 µM (inactive)"
>>> reported("O=C1/C(=C\\c2cccc(Oc3ccccc3)c2)S(=O)(=O)C(c2ccccc2)N1Cc1ccccc1 (stereo unspecified)")
"39.1 µM (inactive)"
>>> reported("C/C=C1/CC(C(=O)OC)N(C(=O)OCc2ccccc2)C1=S (stereo unspecified)")
"> 100 µM (inactive)"
>>> reported("O=C(CCc1ccc(O)c(O)c1)NCCc1cc(O)c(O)c(O)c1")
"8.93 µM (inactive)"
>>> reported("COC(=O)C(NC(=O)CSc1nnc(COc2ccc(Cl)cc2)n1-c1ccccc1)C(C)C (stereo unspecified)")
"40.7 µM (inactive)"
>>> reported("CC(=O)NCC1(c2ccccc2)CCN(CC2COc3ccccc3O2)CC1 (stereo unspecified) [ACOXATRINE]")
"> 100 µM (inactive)"
>>> reported("CCCCCC#CCOC(=O)C(=[N+]=[N-])P(=O)(c1ccccc1)c1ccccc1")
"> 10 µM (inactive)"
>>> reported("C[n+]1c(-c2ccc(NC(=O)c3ccc(C(=O)Nc4ccc(-c5cn6ccccc6[n+]5C)cc4)cc3)cc2)cn2ccccc21")
"> 75 µM (inactive)"
>>> reported("O=C1Oc2ccc([N+](=O)[O-])cc2N/C1=C\\C(=O)c1ccccc1")
"> 100 µM (inactive)"
>>> reported("O=CC1C(Cl)=Nc2nc3ccccc3n2C1c1ccccc1 (stereo unspecified)")
"20.4 µM (inactive)"
>>> reported("CCOc1cc(NC(C)=O)ccc1C(=O)NN1C(=O)C(Cl)C1c1ccco1 (stereo unspecified)")
"13.4 µM (inactive)"
>>> reported("Cc1nnc2sc(NN)nn12")
"> 100 µM (inactive)"

* * *

tested on: SW-620; experiment: NCI tumour cell line growth inhibition, 48 h
The source made the active and inactive calls. Rule as the data show it: active = GI50 up to about 1.1 µM and inactive = higher.
Outcomes: yes = active, no = inactive

>>> answer_label("N/C(=N\\N=C=C1C(=O)Nc2ccc(F)cc21)NO")
"no"
>>> answer_label("CCSC1=N/C(=C\\c2ccco2)C(Nc2ccc(C)cc2)=N1")
"no"
>>> answer_label("CC1SCCc2nc3ccccc3n21 (stereo unspecified)")
"no"
>>> answer_label("CNc1c2cccc(C)c2nc2c(C(=O)NCCN(C)C)cccc12")
"yes"
>>> answer_label("COc1ccc2c3c1C(=O)CCC3CO2 (stereo unspecified)")
"no"
>>> answer_label("COc1ccc2c(c1OC)C1=C(C2=O)c2cc3c(cc2CCN1)OCO3")
"no"

* * *

Below, each of the compounds is paired with its reported GI50 value.
system: HCT-15
measurement-label: GI50

>>> reported("COc1ccc(N/N=C2\\C3=C(CCC(C)(C)O3)C(=O)c3ccccc32)cc1")
"13.7 µM"
>>> reported("O=C(Cc1ccccc1)NN1C(=O)C(Cl)C1c1ccc(O)cc1 (stereo unspecified)")
"> 100 µM"
>>> reported("CN(C(=O)c1ccc(OCCCC(=O)O)c(Cl)c1Cl)C1CCCC1")
"> 100 µM"
>>> reported("O=c1[nH]c(=O)n([C@H]2C[C@H](O)[C@@H](CO)O2)cc1Br")
"> 63.5 µM"
>>> reported("O=C1CSC(c2ccccc2O)N1c1nc2cc3sc(N4C(=O)CSC4c4ccccc4O)nc3cc2s1 (stereo unspecified)")
"7.05 µM"
>>> reported("COC(=O)c1ccccc1/C=C1\\Cc2cc(C)c(C)cc2C1=O")
"> 100 µM"
>>> reported("CC1OC(n2cc(Cl)c(=O)[nH]c2=O)C=C(OC(=O)c2ccccc2)C1=O (stereo unspecified)")
"> 100 µM"
>>> reported("COc1ccc2c3c1C(=O)CCC3CO2 (stereo unspecified)")
"> 100 µM"
>>> reported("CC(C)CC1c2[nH]c3ccccc3c2C[C@H]2C(=O)NC(CCCCNC(=O)OC(C)(C)C)C(=O)N12 (stereo partly specified)")
"31.8 µM"
>>> reported("O=C1Cc2c([nH]c3ccccc23)-c2ccccc2N1")
"30.9 µM"
>>> reported("O=C(NCCCCCCCCCCCCNC(=O)c1cccc2ccccc12)c1cccc2ccccc12")
"> 100 µM"
>>> reported("C=C(CN(C)C)C(=O)c1ccc(C(=O)C(=C)CN(C)C)cc1")
"> 100 µM"
>>> reported("CN(C)CCNC(=O)c1ccc2nc3c(nc2c1)C(=O)c1ccccc1-3")
"31.4 µM"
>>> reported("Nc1[nH]c(=S)[nH]c(=O)c1/N=N/c1c(Br)cc(S(N)(=O)=O)cc1Br")
"> 100 µM"
>>> reported("c1ccc2c(c1)c1c(n2CCOCCN2CCCC2)CCCC1")
"17 µM"
>>> reported("COc1cc(OCc2ccc3nc(-c4ccccc4)c(Cl)nc3c2)cc(OC)c1OC")
"> 100 µM"
